Measured values drawn from ChEMBL document CHEMBL1148663 for this set.

# Test system: SK-BR-3
# measurement-notes: Antiproliferative activity against human SKBr3 cells
# Assay type: functional, cell-based
# condition: Homo sapiens, SK-BR-3; read-out: IC50
readout-name: IC50 (µM)
Report the figure in µM without appending any unit label.

Below, 2 molecules whose answers are already recorded.
# query: IC50 of entry `O=S(=O)(Nc1ccc(Cl)cc1O)c1ccccc1`
75

# query: IC50 of entry COc1cc(C2CC(c3ccccc3O)=NN2)ccc1O (stereo not drawn)
48

***
# query: IC50 of entry CC1(C)CC2=Nc3ccccc3NC(c3cccc(O)c3O)C2=C(O)C1 (stereo not drawn)
66

---

Each entry below carries its reported IC50.
# system-under-test: Heat shock protein HSP90 (Homo sapiens, UniProt P07900+P08238)
# measurement-notes: Inhibition of Hsp90 by recombinant ATPase assay
# Assay type: functional
Report the figure in nM without appending any unit label.

# query: IC50 of entry `COc1ccc(O)c(-c2c[nH]nc2-c2cccs2)c1`
3000

# query: IC50 of entry COc1cc(C2CC(c3ccccc3O)=NN2)ccc1O (stereo not given)
5400

# query: IC50 of entry `O=c1c(Oc2ccc(F)cc2)coc2c(O)c(O)ccc12`
3200

Continue with the next compound.
# query: IC50 of entry `O=C1CC(=O)N(c2cccc(Cl)c2)N1`
4100
